Values were extracted from the supplement of paper PMC9170038.

- Tested on: MS2 coat protein
- Experiment Notes: apparent KD of MS2 coat protein, switch OFF state (with FMN for OFF switches, without FMN for ON switches); designed switch direction (-1 OFF switch, 1 ON switch): -1; higher = weaker reporter binding
- Condition Details: FMN input: 0 or 200 uM; Eterna round: R93 (includes R88 designs)
Endpoint Label: apparent KD of MS2 coat protein (nM)
Could you give me the number in nM? Just the number is fine.

See these solved cases before continuing.
AAAAAACAUGAGGAUCACCCAUGUGAGGAUAUGCAGCGAAUAAAGAAAGAAGAAAGCAGCAGAAGGCACACCAA [Amethyst 78] ... 44.1
AUAAAACAUGAGGAUCACCCAUGUGAGGAUAUGCGAAAUAAUGAAUAAAGAAAUAAAAGCAGAAGGCACAAAAA [LROPPY Exclusion 1 - v05_deltaG=1.64 break up some As mixed] ... 28.9

Next item in the queue.
What measured apparent KD of MS2 coat protein is associated with AAGAAGGUAGGAUAUACAAAAUAAAAGAAAAGAAAGAAAGAACAUGAGGAUCACCCAUGUAGAAGGGCCAAGAA [Khendjer] on MS2 coat protein? 35.3
